assayTarget: T1, cynomolgus monkey CD8 alpha on primary cynomolgus CD8+ T cells (cynomolgus monkey, UniProt P01732 23-235 (human entry))
T1 construct: also called Cyno CD8alpha; cyno CD8A
T1 sequence (P01732 other isoform, or with tags, fused parts or gaps limits assumed): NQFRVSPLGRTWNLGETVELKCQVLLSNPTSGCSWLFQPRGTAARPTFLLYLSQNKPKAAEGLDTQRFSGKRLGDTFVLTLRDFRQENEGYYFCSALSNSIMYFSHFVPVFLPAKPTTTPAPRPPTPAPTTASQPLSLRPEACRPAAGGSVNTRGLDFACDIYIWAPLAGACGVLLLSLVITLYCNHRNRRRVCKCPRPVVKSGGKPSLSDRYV
experimentSummary: flow cytometry, cyno CD8+ T cells
readoutLabel: Cyno T-cell Binding 0.2 uM (MFI)

1. P283DR9P1364_H6 (designed binder, FN3 domain) LPAPKNLVVSRVTEDSARLSWTAPDAAFDSFIIAYPETPVRGEAIVLTVPGSERSYDLTGLKPGTEYFVIIIGVKGGQESFPLSAIFTT
2. P283BR9P1363_G7 (designed binder, FN3 domain) LPAPKNLVVSRVTEDSARLSWSAKKFPRHFDSFLIQYQESEKVGEAIVLTVPGSERSYDLTGLKPGTEYTVSIYGVDVKWEGNRPVASNPLSAIFTT
[in] Quick check, higher Cyno T-cell Binding 0.2 uM (MFI) between 1 and 2 ? Provide the label of your selected option as the answer.
[out] 2
(2: 3020 MFI, 1: 418 MFI)
